Origin of the recorded values: patent US8586603B2

Target: porcine striatal pD1 dopamine receptor (Sus scrofa, UniProt P50130)
Construct: membrane homogenates prepared from porcine striatal or cortical tissue; from tissue; host or cells: porcine striatum
Sequence (P50130 whole entry): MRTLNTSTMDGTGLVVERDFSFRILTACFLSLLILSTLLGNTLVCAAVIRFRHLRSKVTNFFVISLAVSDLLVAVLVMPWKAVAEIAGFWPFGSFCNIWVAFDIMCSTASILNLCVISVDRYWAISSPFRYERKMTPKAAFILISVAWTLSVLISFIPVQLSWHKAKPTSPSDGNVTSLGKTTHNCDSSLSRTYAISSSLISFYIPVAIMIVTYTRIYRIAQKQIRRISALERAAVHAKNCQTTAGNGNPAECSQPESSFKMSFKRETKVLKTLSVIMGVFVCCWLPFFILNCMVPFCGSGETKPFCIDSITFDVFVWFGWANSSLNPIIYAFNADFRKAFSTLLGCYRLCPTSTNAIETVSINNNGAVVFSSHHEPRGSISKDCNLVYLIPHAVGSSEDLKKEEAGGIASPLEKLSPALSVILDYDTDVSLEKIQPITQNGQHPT
Test: Receptor binding assay, [3H]SCH 23390 competition, porcine striatal membranes
Details: vs p5-HT1a
Result type: selectivity ratio pD1

What is its selectivity ratio pD1 for porcine striatal pD1 dopamine receptor (Sus scrofa, UniProt P50130)? Entry: CCCN(CCc1cccs1)[C@H]1CCc2cccc(O)c2C1
3 000

Please provide the recorded selectivity ratio pD1 for CCCN(CCc1cccs1)[C@@H]1CCc2cccc(O)c2C1 , tested on porcine striatal pD1 dopamine receptor (Sus scrofa, UniProt P50130).
17 000

Find the measured selectivity ratio pD1: item CCCN(CCc1ccccc1)C1CCc2cccc(O)c2C1 (centres unmarked) , target or system porcine striatal pD1 dopamine receptor (Sus scrofa, UniProt P50130).
15 000

Field: selectivity ratio pD1 (porcine striatal pD1 dopamine receptor (Sus scrofa, UniProt P50130)). Entry: CCCN(CCc1cccs1)C1CCc2cccc(O)c2C1 (centres unmarked)
13 000

Reported selectivity ratio pD1 for porcine striatal pD1 dopamine receptor (Sus scrofa, UniProt P50130), given CCCN(CCc1cc2ccc1CCc1ccc(cc1)CC2)C1CCc2cccc(O)c2C1 (centres unmarked) ?
230

For the record CCCN(CCc1ccc(O)cc1)C1CCc2cccc(O)c2C1 (centres unmarked) , what value of selectivity ratio pD1 is listed for porcine striatal pD1 dopamine receptor (Sus scrofa, UniProt P50130)?
5 600

API: value(readout=selectivity ratio pD1, system=porcine striatal pD1 dopamine receptor (Sus scrofa, UniProt P50130)) for record CCCN(CCc1cc(C)ccc1C)C1CCc2cccc(O)c2C1 (centres unmarked)
1 400

Report selectivity ratio pD1 for CCCN(CCc1cc2ccc1CCc1ccc(cc1)CC2)C1CCc2cccc(OC)c2C1 (centres unmarked) tested on porcine striatal pD1 dopamine receptor (Sus scrofa, UniProt P50130).
38

====

Biological target: UniProt A0A4X1UTF5
Sequence (A0A4X1UTF5 1-422): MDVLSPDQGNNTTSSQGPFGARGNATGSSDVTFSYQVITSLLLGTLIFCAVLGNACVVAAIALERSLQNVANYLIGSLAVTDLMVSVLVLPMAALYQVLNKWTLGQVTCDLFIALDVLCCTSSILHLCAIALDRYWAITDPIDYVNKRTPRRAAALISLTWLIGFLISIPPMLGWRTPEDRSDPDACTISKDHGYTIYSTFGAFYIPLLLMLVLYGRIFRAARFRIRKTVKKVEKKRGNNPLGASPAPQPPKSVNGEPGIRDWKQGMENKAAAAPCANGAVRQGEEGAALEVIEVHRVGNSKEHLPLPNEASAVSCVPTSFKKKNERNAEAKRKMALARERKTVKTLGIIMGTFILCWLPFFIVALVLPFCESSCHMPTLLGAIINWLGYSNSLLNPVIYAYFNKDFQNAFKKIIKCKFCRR
Result type: Ki
Answer by giving the amount and then stating its unit.

# get_value(readout='Ki', item= CCCN(CCc1cccs1)[C@@H]1CCc2cccc(O)c2C1 )
0.52 nM

Consider the molecule shown here: CCCN(CCc1cc2ccc1CCc1ccc(cc1)CC2)C1CCc2cccc(O)c2C1 (stereo not shown) What is its recorded Ki?
15 nM

Which Ki reading was recorded for the molecule CCCN(CCc1cccs1)C1CCc2cccc(O)c2C1 (stereo not shown) ?
0.73 nM

Endpoint output: Ki of CCCN(CCc1cc2ccc1CCc1ccc(cc1)CC2)C1CCc2cccc(OC)c2C1 (stereo not shown) . Value?
50 nM

Ki lookup needed for CCCN(CCc1ccccc1)C1CCc2cccc(O)c2C1 (stereo not shown) , thanks.
0.62 nM

// lookup Ki for CCCN(CCc1ccc(OC)cc1)C1CCc2cccc(OC)c2C1 (stereo not shown)
5.5 nM

Which Ki reading was recorded for the molecule CCCN(CCc1ccc(O)cc1)C1CCc2cccc(O)c2C1 (stereo not shown) ?
1.1 nM

Value lookup for Ki; key = CCCN(CCC)C1CCc2cccc(O)c2C1 (stereo not drawn) [R-(+)-8-OH-DPAT, reference compound]
1.2 nM

I would be grateful if you could share the reported Ki for CCCN(CCc1cccs1)[C@H]1CCc2cccc(OC)c2C1 .
6.7 nM

Please give the measured Ki for this molecule: CCCN(CCc1cc(C)ccc1C)C1CCc2cccc(O)c2C1 (stereo not shown)
1.7 nM
